Measured IC50 values are reported for all entries that follow.
Biological target: Chemerin-like receptor 1 (Homo sapiens, UniProt Q99788)
Sequence (Q99788 whole entry): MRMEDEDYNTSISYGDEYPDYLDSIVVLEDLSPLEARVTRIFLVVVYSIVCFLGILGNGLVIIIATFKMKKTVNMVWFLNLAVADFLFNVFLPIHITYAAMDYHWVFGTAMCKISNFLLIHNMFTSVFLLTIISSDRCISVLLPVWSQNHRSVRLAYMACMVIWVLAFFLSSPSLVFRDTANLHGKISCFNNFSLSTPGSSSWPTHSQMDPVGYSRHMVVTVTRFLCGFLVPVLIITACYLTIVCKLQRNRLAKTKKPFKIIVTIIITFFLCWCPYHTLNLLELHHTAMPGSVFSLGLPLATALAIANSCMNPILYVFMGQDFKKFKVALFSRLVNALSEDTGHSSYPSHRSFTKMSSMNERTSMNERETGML
Experiment: Displacement of [125I]-chemerin from ChemR23 (unknown origin) transfected in mouse BaF3 cells after 3 hrs by scintillation counting method

q: Give Chemerin-like receptor 1 (Homo sapiens, UniProt Q99788) IC50 for "CC[C@@]1(C(=O)Nc2cc(OC)cc(C(F)(F)F)c2)CN(c2c(C)cccc2C)C(=O)[C@H]1C"
a: 30 to 300 nM

q: So what IC50 did Cc1cccc(C)c1N1CC(COCc2ccccc2)(C(=O)Nc2cc(C(F)(F)F)cc(C(F)(F)F)c2)CC1=O (stereo not drawn) get with Chemerin-like receptor 1 (Homo sapiens, UniProt Q99788)?
a: ≤ 30 nM

q: Value wanted: IC50 (Chemerin-like receptor 1 (Homo sapiens, UniProt Q99788)) of entry "CCCC[C@@]1(C(=O)Nc2cc(C(F)(F)F)cc(C(F)(F)F)c2)CN(c2c(C)cccc2C)C(=O)[C@H]1C"
a: ≤ 30 nM

New cases:
q: Please tell me: IC50 of CCc1ccccc1N1CC(C(=O)Nc2cc(C(F)(F)F)cc(C(F)(F)F)c2)CC1=O (stereo not drawn) , system Chemerin-like receptor 1 (Homo sapiens, UniProt Q99788)?
a: 30 to 300 nM

q: What reported IC50 corresponds to Cc1cccc(C)c1N1CC2(C(=O)Nc3cc(C(F)(F)F)cc(C(F)(F)F)c3)COCCC2C1=O (stereo not drawn) on Chemerin-like receptor 1 (Homo sapiens, UniProt Q99788)?
a: 300 to 6000 nM

q: Form entry - test system: Chemerin-like receptor 1 (Homo sapiens, UniProt Q99788); read-out: IC50; compound: Cc1ccc(C)c(N2CC(C(=O)Nc3cc(C(F)(F)F)cc(C(F)(F)F)c3)CC2=O)c1 (stereo not drawn)
a: 30 to 300 nM

q: Field: IC50 (Chemerin-like receptor 1 (Homo sapiens, UniProt Q99788)). Entry: "Cc1cccc(C)c1N1C[C@@](CN(C)CC(C)C)(C(=O)Nc2cc(C3CC3)cc(C(F)(F)F)c2)[C@H](C)C1=O"
a: 30 to 300 nM

q: What IC50 appears in the records for this compound with Chemerin-like receptor 1 (Homo sapiens, UniProt Q99788)? "CC[C@@]1(C(=O)Nc2cc(OC3CCCC3)cc(C(F)(F)F)c2)CN(c2c(C)cccc2C)C(=O)[C@H]1C"
a: ≤ 30 nM

All figures here come from ChEMBL document CHEMBL3879908.
